Assay: Metabolic stability at phase 2 in human liver microsomes assessed as half life at 10 uM by LC-UV analysis
testReadout: half-life at 10 µM
Kindly write the number and append the unit.

Prompt: Given the entry `COc1cc(/C=C2\Cc3ccc(N4CCCC4)cc3C2=O)ccc1O` , report its measured half-life at 10 µM.
Response: 1.72 h

---

Assay: Metabolic stability at phase 1 in human liver microsomes assessed as half life at 10 uM by LC-UV analysis
testReadout: half-life at 10 µM (h)
# value in h; strip the unit string

Prompt: # lookup: half-life at 10 µM of `COc1cc(/C=C2\Cc3ccc(N4CCCC4)cc3C2=O)ccc1O`
Response: 1.6

---

Target: UniProt:O00748
Sequence (O00748 whole entry): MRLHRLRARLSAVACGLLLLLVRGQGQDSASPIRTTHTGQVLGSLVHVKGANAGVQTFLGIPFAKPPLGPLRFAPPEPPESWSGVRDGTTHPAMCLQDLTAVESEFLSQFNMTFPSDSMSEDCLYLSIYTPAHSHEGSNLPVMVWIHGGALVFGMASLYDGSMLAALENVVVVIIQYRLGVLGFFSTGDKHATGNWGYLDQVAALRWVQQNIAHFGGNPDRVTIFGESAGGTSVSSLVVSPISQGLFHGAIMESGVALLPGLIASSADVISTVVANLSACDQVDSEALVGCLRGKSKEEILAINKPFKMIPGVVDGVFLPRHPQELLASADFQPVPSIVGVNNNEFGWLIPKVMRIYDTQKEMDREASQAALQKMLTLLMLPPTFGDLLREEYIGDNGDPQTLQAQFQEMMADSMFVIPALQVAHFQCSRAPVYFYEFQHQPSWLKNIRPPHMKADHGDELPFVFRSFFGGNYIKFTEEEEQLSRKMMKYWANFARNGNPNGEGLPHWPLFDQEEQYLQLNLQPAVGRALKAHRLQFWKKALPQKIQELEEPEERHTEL
This listing pairs molecules with measured IC50.
State just the number; it will be interpreted in µM.

Solved entries (count: 3):
>>> df
                       smilesrepresentation  testreadout  readoutunits  resultvalue
0        COc1ccc(/C=C2\Cc3ccc(O)cc3C2=O)cc1         IC50            µM           56
1       COc1cc(/C=C2\Cc3ccc(O)cc3C2=O)ccc1O         IC50            µM         1.09
2  CCCOc1ccc2c(c1)C(=O)/C(=C/c1ccc(O)c(OC)c1)C2         IC50            µM         1.62

Below: the item to evaluate.
Prompt: I am curious: what IC50 value has been reported for `COc1ccc(/C=C2\Cc3ccc(O)cc3C2=O)c(OC)c1OC` ?
Response: 5.23

---

Biological target: Cholinesterase (Homo sapiens)
Sequence (P06276 whole entry): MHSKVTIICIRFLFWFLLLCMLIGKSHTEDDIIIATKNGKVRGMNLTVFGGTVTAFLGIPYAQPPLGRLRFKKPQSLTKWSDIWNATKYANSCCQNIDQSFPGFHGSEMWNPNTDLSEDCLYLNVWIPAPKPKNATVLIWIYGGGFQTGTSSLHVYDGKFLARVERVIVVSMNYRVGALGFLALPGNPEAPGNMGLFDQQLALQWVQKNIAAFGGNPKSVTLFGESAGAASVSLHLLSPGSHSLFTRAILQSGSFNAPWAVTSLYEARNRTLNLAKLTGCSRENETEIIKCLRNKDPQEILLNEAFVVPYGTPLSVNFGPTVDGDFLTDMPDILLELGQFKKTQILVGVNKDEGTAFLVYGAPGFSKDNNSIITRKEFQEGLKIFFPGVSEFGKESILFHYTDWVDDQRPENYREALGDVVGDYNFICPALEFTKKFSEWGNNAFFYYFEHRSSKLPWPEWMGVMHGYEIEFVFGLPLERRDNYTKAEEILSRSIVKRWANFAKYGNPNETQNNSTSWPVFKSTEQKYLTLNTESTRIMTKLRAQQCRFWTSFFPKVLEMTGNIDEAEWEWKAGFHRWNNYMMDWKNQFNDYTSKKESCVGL
Assay: Inhibition of BChE in human plasma assessed as reduction in butyrylthiocholineiodide hydrolysis preincubated for 3 mins followed by substrate addition
testReadout: IC50

Prompt: Please report the recorded IC50 for `COc1cc(/C=C2\Cc3ccc(N4CCCC4)cc3C2=O)ccc1O` .
Response: > 100 µM
